# Tested on: HCT-116
# assay.remarks: Antiproliferative activity against human HCT-116 cells assessed as cell growth inhibition incubated for 48 hrs by MTT assay
# Format: functional, cell-based
# test.context: HCT-116, 48 h
recorded.metric: pIC50
Answers are plain numbers, as −log10 of the molar value.

query.smiles: CCCNNC(=O)CCCNCc1ccc(-c2cccc(-c3ccccc3)c2C)nc1OC
assayed.target: HCT-116
recorded.metric: pIC50
value.reported: 5.54
--
query.smiles: CCCNNC(=O)c1cnc(NCCNCc2ccc(-c3cccc(-c4ccccc4)c3C)nc2OC)cn1
assayed.target: HCT-116
recorded.metric: pIC50
value.reported: 4.83

Okay, next one:
What value of pIC50 has been recorded for this entry: Nc1ccccc1NC(=O)c1ccc(CNC(=O)OCc2cccnc2)cc1 5.45

====

# assayed.target: Programmed cell death protein 1/Programmed cell death 1 ligand 1 (Homo sapiens) (UniProt Q15116+Q9NZQ7)
# assay.remarks: Inhibition of PD-1/PD-L1 (unknown origin) interaction assessed as inhibition rate at 1 uM by HTRF assay relative to control
# Format: protein-complex assay
Decision: inhibition compared against 90%; not below it gives true, below it gives false.

Observe how each entry below is paired with its result.
query.smiles: CCCNNC(=O)C1CCN(Cc2ccc(-c3cccc(-c4ccccc4)c3C)nc2OC)CC1
assigned.category: false

query.smiles: CCCNNC(=O)c1cnc(NCCCNCc2ccc(-c3cccc(-c4ccccc4)c3C)nc2OC)cn1
assigned.category: false

query.smiles: CCCNNC(=O)CCCNCc1ccc(-c2cccc(-c3ccccc3)c2C)nc1OC
assigned.category: true

query.smiles: CCCNNC(=O)CCCCCNCc1ccc(-c2cccc(-c3ccccc3)c2C)nc1OC
assigned.category: true

Entry CCCNNC(=O)c1ccc(NCCNCc2ccc(-c3cccc(-c4ccccc4)c3C)nc2OC)cc1 : is its inhibition no less than 90%? false

Entry CCCNNC(=O)c1cnc(N2CCC(NCc3ccc(-c4cccc(-c5ccccc5)c4C)nc3OC)CC2)nc1 : is its inhibition no less than 90%? false

Entry CCCNNC(=O)c1cnc(NCCNCc2ccc(-c3cccc(-c4ccccc4)c3C)nc2OC)cn1 : is its inhibition no less than 90%? true

Entry CCCNNC(=O)c1cnc(N2CCC(NCc3ccc(-c4cccc(-c5ccccc5)c4C)nc3OC)CC2)cn1 : is its inhibition no less than 90%? false

====

# Test system: MDA-MB-231
# assay.remarks: Antiproliferative activity against human MDA-MB-231 cells assessed as cell growth inhibition incubated for 48 hrs by MTT assay
# Assay type: functional, cell-based
# test.context: MDA-MB-231, 48 h
recorded.metric: pIC50
Answers are plain numbers, as −log10 of the molar value.

The following compounds have reported results that may help.
query.smiles: CCCNNC(=O)c1cnc(NCCNCc2ccc(-c3cccc(-c4ccccc4)c3C)nc2OC)cn1
value.reported: 4.86
//
query.smiles: CCCNNC(=O)CCCNCc1ccc(-c2cccc(-c3ccccc3)c2C)nc1OC
value.reported: 5.52

What value of pIC50 has been recorded for this entry: Nc1ccccc1NC(=O)c1ccc(CNC(=O)OCc2cccnc2)cc1 4.52

====

# assayed.target: Histone deacetylase 3 (Homo sapiens, UniProt O15379)
# Sequence (O15379 whole entry): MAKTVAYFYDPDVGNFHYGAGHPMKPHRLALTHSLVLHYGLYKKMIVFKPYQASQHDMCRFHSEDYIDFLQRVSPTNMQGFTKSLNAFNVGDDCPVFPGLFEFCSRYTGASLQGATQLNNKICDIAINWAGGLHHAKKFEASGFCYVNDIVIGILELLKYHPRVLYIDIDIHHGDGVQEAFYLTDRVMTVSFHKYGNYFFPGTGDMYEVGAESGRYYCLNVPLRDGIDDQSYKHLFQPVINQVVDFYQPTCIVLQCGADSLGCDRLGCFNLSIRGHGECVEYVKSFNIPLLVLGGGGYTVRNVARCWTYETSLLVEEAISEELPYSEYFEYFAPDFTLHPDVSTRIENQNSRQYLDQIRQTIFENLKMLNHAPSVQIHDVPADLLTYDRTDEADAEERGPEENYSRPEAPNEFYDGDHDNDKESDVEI
# assay.remarks: Inhibition of human recombinant HDAC3 using Ac-Leu-Gly-Lys (Ac)-AMC as substrate preincubated for 10 mins followed by substrate addition and measured after 45 mins by TECAN microtiter plate reader analysis
For each record, write down the corresponding IC50.

The following compounds have reported results that may help.
query.smiles: CCCNNC(=O)c1cnc(NCCNCc2ccc(-c3cccc(-c4ccccc4)c3C)nc2OC)cn1
value.reported: 0.168 µM

query.smiles: CCCNNC(=O)CCCCNCc1ccc(-c2cccc(-c3ccccc3)c2C)nc1OC
value.reported: 0.111 µM

query.smiles: CCCNNC(=O)CCCNCc1ccc(-c2cccc(-c3ccccc3)c2C)nc1OC
value.reported: 0.107 µM

query.smiles: CCCNNC(=O)CCCCCNCc1ccc(-c2cccc(-c3ccccc3)c2C)nc1OC
value.reported: 0.106 µM

Okay, next one:
What value of IC50 has been recorded for this entry: Cc1c(COc2cc(OCc3cccc(C#N)c3)c(CNC(C)(C)C(=O)O)cc2Cl)cccc1-c1ccccc1 > 10 µM

====

# assayed.target: Histone deacetylase 3 (Homo sapiens)
# assay.remarks: Inhibition of human recombinant HDAC3 using Ac-Leu-Gly-Lys (Ac)-AMC as substrate at 0.1 uM preincubated for 10 mins followed by substrate addition and measured after 45 mins by TECAN microtiter plate reader analysis relative to control
# test.context: time 55.0 min
recorded.metric: inhibition (%)
Answers are plain numbers, in %.

query.smiles: CCCNNC(=O)c1cnc(NCCNCc2ccc(-c3cccc(-c4ccccc4)c3C)nc2OC)cn1
assayed.target: Histone deacetylase 3 (Homo sapiens)
inhibition (%): 40.2
//
query.smiles: CCCNNC(=O)CCNCc1ccc(-c2cccc(-c3ccccc3)c2C)nc1OC
assayed.target: Histone deacetylase 3 (Homo sapiens)
inhibition (%): 36
//
query.smiles: CCCNNC(=O)CCCCNCc1ccc(-c2cccc(-c3ccccc3)c2C)nc1OC
assayed.target: Histone deacetylase 3 (Homo sapiens)
inhibition (%): 41.9

Please report inhibition for every entry that follows.
1. CCCNNC(=O)CCCNCc1ccc(-c2cccc(-c3ccccc3)c2C)nc1OC
2. CCCNNC(=O)c1ccc(NCCNCc2ccc(-c3cccc(-c4ccccc4)c3C)nc2OC)nn1
3. CCCNNC(=O)C1CCN(Cc2ccc(-c3cccc(-c4ccccc4)c3C)nc2OC)CC1
4. CCCNNC(=O)c1ccc(C(=O)NCCNCc2ccc(-c3cccc(-c4ccccc4)c3C)nc2OC)cc1
5. CCCNNC(=O)CCCCCNCc1ccc(-c2cccc(-c3ccccc3)c2C)nc1OC

1: 42; 2: 38.5; 3: 33.2; 4: 46.8; 5: 53.6

====

# assayed.target: Histone deacetylase 3 (Homo sapiens)
# assay.remarks: Inhibition of human recombinant HDAC3 using Ac-Leu-Gly-Lys (Ac)-AMC as substrate at 1 uM preincubated for 10 mins followed by substrate addition and measured after 45 mins by TECAN microtiter plate reader analysis relative to control
# test.context: time 55.0 min
recorded.metric: inhibition

query.smiles: CCCNNC(=O)CCCCCNCc1ccc(-c2cccc(-c3ccccc3)c2C)nc1OC
inhibition: 82%

Please report inhibition for every entry that follows.
1. CCCNNC(=O)c1cnc(NCCNCc2ccc(-c3cccc(-c4ccccc4)c3C)nc2OC)cn1
2. CCCNNC(=O)CCCCNCc1ccc(-c2cccc(-c3ccccc3)c2C)nc1OC

1: 79.7%; 2: 79.4%

Please report inhibition for every entry that follows.
1. CCCNNC(=O)c1ccc(NCCNCc2ccc(-c3cccc(-c4ccccc4)c3C)nc2OC)nn1
2. CCCNNC(=O)c1cnc(N2CCC(NCc3ccc(-c4cccc(-c5ccccc5)c4C)nc3OC)CC2)nc1
3. CCCNNC(=O)c1cnc(NCCCNCc2ccc(-c3cccc(-c4ccccc4)c3C)nc2OC)cn1
4. CCCNNC(=O)c1ccc(C(=O)NCCNCc2ccc(-c3cccc(-c4ccccc4)c3C)nc2OC)cc1
5. CCCNNC(=O)C1CCN(Cc2ccc(-c3cccc(-c4ccccc4)c3C)nc2OC)CC1
6. CCCNNC(=O)CCCNCc1ccc(-c2cccc(-c3ccccc3)c2C)nc1OC

69.5%
< 50%
< 50%
74.3%
71.3%
83.1%

====

# assayed.target: Programmed cell death protein 1/Programmed cell death 1 ligand 1 (Homo sapiens) (UniProt Q15116+Q9NZQ7)
# assay.remarks: Inhibition of PD-1/PD-L1 (unknown origin) interaction assessed as inhibition rate at 1 uM by HTRF assay relative to control
# Assay type: protein-complex assay
recorded.metric: inhibition (%)
Answers are plain numbers, in %.

The following molecules have reported results that may help.
molecule: CCCNNC(=O)CCCCCCNCc1ccc(-c2cccc(-c3ccccc3)c2C)nc1OC
value.reported: 89.8

molecule: CCCNNC(=O)c1ccc(C(=O)NCCNCc2ccc(-c3cccc(-c4ccccc4)c3C)nc2OC)cc1
value.reported: 88.1

molecule: CCCNNC(=O)c1ccc(NCCNCc2ccc(-c3cccc(-c4ccccc4)c3C)nc2OC)nn1
value.reported: 78.5

molecule: CCCNNC(=O)c1cnc(N(C)CCN(C)Cc2ccc(-c3cccc(-c4ccccc4)c3C)nc2OC)nc1
value.reported: 28.8

molecule: CCCNNC(=O)c1cnc(N2CC(NCc3ccc(-c4cccc(-c5ccccc5)c4C)nc3OC)C2)nc1
value.reported: 68.2

molecule: CCCNNC(=O)CC1CCN(Cc2ccc(-c3cccc(-c4ccccc4)c3C)nc2OC)CC1
value.reported: 89.4

molecule: CCCNNC(=O)c1ccc(CNCc2ccc(-c3cccc(-c4ccccc4)c3C)nc2OC)cc1
value.reported: 42.4

molecule: CCCNNC(=O)c1ccc(NCc2ccc(-c3cccc(-c4ccccc4)c3C)nc2OC)c(C)c1
value.reported: 4.65

molecule: CCCNNC(=O)CC1CCCN(Cc2ccc(-c3cccc(-c4ccccc4)c3C)nc2OC)C1 (centres undefined)
value.reported: 59.1

molecule: CCCNNC(=O)c1cnc(N2CC(NCc3ccc(-c4cccc(-c5ccccc5)c4C)nc3OC)C2)cn1
value.reported: 54.5

Please report inhibition for every entry that follows.
1. CCCNNC(=O)c1cnc(NCCNCc2ccc(-c3cccc(-c4ccccc4)c3C)nc2OC)nc1
2. CCCNNC(=O)CNCc1ccc(-c2cccc(-c3ccccc3)c2C)nc1OC
3. CCCNNC(=O)c1ccc(NCc2ccc(-c3cccc(-c4ccccc4)c3C)nc2OC)cc1
4. CCCNNC(=O)CCCCNCc1ccc(-c2cccc(-c3ccccc3)c2C)nc1OC

1: 95.1; 2: 68.9; 3: 7.61; 4: 92.5

Values were extracted from ChEMBL document CHEMBL6109156.
